Assay: adipocyte viability effects, profiling panel, cell-based, 3T3-L1 adipocytes, calcein-AM fluorescence, 48 h, basal (AID 1163); further: test concentration not given here
Settings: 3T3-L1 adipocytes viability, higher = more signal
QUANTITY KIND: z-score
API note: the answer field is a bare number with no unit suffix.

Some entries whose results are on file:
So what does the record say about z-score for COC(=O)[C@H]1COC(c2ccc(OCCCO)cc2)=N1 ?
0.568

Item Cn1c(=O)n2n(c1=O)[C@H]1[C@H](O)[C@@H]3O[C@@H]3C(=NOC[C@@H](O)COCc3ccco3)[C@H]1CC2 has what recorded z-score?
0.323

// lookup z-score for COC(=O)[C@H](C)NC(=O)CCC1CC(OC(=O)NCc2cccc3ccccc23)CC2(CCCC(COC(=O)NCC3CCCCC3)O2)O1 (some centres undefined)
-0.687

---
Which value of z-score has been reported for COC(=O)[C@@]1(Cc2ccc(F)cc2)[C@H]2c3cc(C(=O)N(C)C)n(Cc4ccc(OC)c(OC)c4)c3C[C@H]2CN1C(=O)c1ccccc1 in the records?
0.272

Which z-score value is on record for C=C(COC)/C(=C/C[C@H](OC(=O)c1ccncc1)c1ccc(CO)o1)c1cc(C(=O)OC)ccc1OC ?
-0.256

Can you share its z-score? I mean this compound: COC(=O)[C@@H]1CC[C@H](C)[C@@H](c2ccc(C)cc2)N1C(=O)c1ccc(C=NOC[C@@H](O)COCc2ccco2)cc1
0.346

// lookup z-score for COC(=O)[C@@H]1CCCN1C(=O)[C@@H](C)CO
0.512

For COCCOC(=O)N1C(=O)[C@@]2(c3cc(C#Cc4ccc(OC)cc4)ccc31)[C@H](C(=O)N1CCN(c3ncccn3)CC1)[C@H]1C(=O)O[C@H](c3ccccc3)[C@H](c3ccccc3)N1[C@@H]2c1ccc(OCCO)cc1 , what is its reported z-score?
0.717

Fill in: z-score of Cc1ccc(S[C@]2(C(=O)O)CC(=O)N(Cc3ccccc3)[C@@H]2c2ccc(CO)cc2I)cc1 is ___
0.181

----------
Molecular target: Torsin-1A (Homo sapiens)
Assay: small-molecule binders of mutant TOR1A in lysate, primary screen, cell lysate, small-molecule microarray, COS7 lysate, 635/667 nm fluorescence (AID 1150);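 further: score pools 667 nm emission and signal to noise measuring lysate protein binding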
Conditions: COS7 hTOR1A mutant lysate, 635 nm fluorescence, higher = more signal
Cut-off 0.5 on composite z-score, inclusive. At or above means YES; below means NO.

Exam item: decide whether the reported composite z-score for COc1ccc(O[C@H]2C=C[C@@H](c3ccccc3)O[C@@H]2COC(=O)CCC(C)=NOCC[C@@H]2C=C[C@H](OC(C)=O)[C@@H](COC(C)=O)O2)cc1 is at least 0.5.
NO

Exam item: decide whether the reported composite z-score for CCCNC(=O)[C@@H]1c2ccccc2C(=O)N(Cc2ccccc2Cl)[C@H]1c1ccc(CO)cc1 is at least 0.5.
NO

Form field: composite z-score at least 0.5? Entry: CO[C@H]([C@@H](C)[C@H](OC)c1ccccc1)[C@H](C)[C@@H](OC)[C@H](C)C(C)=O
NO

Textbook exercise: given the entry CN(C)C(=O)[C@@]1(Cc2ccccc2)N=C(c2ccc(OCCCO)cc2)O[C@H]1c1ccccc1CN=[N+]=[N-] , state whether its composite z-score is greater than or equal to 0.5.
YES

Continuing:
Check this compound for composite z-score at or above 0.5: COC(=O)CC=C[C@@H](C)[C@@H](C=NO[C@H](C)c1cn([C@@H]2COC[C@H]2O)nn1)OC
YES

Evaluate CCN1C(=O)[C@H]2[C@H]3[C@H](O)C=CC(=O)[C@@H]3CC[C@H]2C1=O : composite z-score at minimum 0.5?
YES

Determine whether measured composite z-score meets or exceeds 0.5 for O=C1NC(=O)C2C1C=CC(C(O)Cc1ccccc1)N2Nc1ccccn1 (configuration not stated)
YES

// inclusive: composite z-score at least 0.5? input: CCCC[C@@H](O)C1=C(C)C[C@H]2C(=O)N(Cc3ccccc3)C(=O)[C@H]2[C@H]1CO
NO

# check: composite z-score of O=C1[C@H]2[C@H]3[C@H](O)[C@H](O)CC(=NO[C@@H]4O[C@H](CO)[C@@H](O)[C@H](O)[C@H]4O)[C@H]3CC[C@H]2C(=O)N1Cc1ccc2c(c1)OCO2 is greater than or equal to 0.5
NO

From: PubChem BioAssay
